Source listed as patent US20170037110A1.

Quick reference: peptide exchange yield of the listed items.
Tgt: T1, HLA-A*02:01 (human)
T1 construct: monomers captured on streptavidin plates; also called MHC class I
Test Summary: UV peptide exchange ELISA

{"Binder": "KIAENVEEV", "peptide exchange yield": "20 to 50%"}
{"Binder": "KVLEVTEEFGV", "peptide exchange yield": "50 to 75%"}
{"Binder": "HLLSELEAAPYL", "peptide exchange yield": "≥ 75%"}
{"Binder": "SLLSVSHAL", "peptide exchange yield": "50 to 75%"}
{"Binder": "GLFPEHLIDV", "peptide exchange yield": "50 to 75%"}
{"Binder": "ALITEVVRL", "peptide exchange yield": "20 to 50%"}
{"Binder": "FLLQHVQEL", "peptide exchange yield": "50 to 75%"}
{"Binder": "LAVHPSGVAL", "peptide exchange yield": "10 to 20%"}
{"Binder": "KLLGKVETA", "peptide exchange yield": "50 to 75%"}
